Taken from paper PMC11945657.

- assay: DPPH free radical scavenging antioxidant assay
- condition set: 25 µM

{"columns": ["compound", "% Antioxidant Activity (%)"],
 "data": [
  ["O=C(/C=C/c1ccc(Cl)cc1)c1ccc(N2CCOCC2)cc1", 15.62],
  ["COc1ccccc1/C=C/C(=O)c1ccc(N2CCOCC2)cc1", 16.00],
  ["CCc1ccc(/C=C/C(=O)c2ccc(N3CCOCC3)cc2)cc1", 15.55],
  ["O=C(/C=C/c1ccc(Br)c(F)c1)c1ccc(N2CCOCC2)cc1", 23.41],
  ["Cc1cccc(/C=C/C(=O)c2ccc(N3CCOCC3)cc2)c1", 31.47],
  ["Cc1ccc(/C=C/C(=O)c2ccc(N3CCOCC3)cc2)cc1", 23.43],
  ["O=C(/C=C/c1cccc(F)c1)c1ccc(N2CCOCC2)cc1", 21.05],
  ["O=C(/C=C/c1ccc(Br)cc1)c1ccc(N2CCOCC2)cc1", 21.80],
  ["O=C(/C=C/c1ccc(Cl)c(Cl)c1)c1ccc(N2CCOCC2)cc1", 25.78]
]}
